MEASURED_TARGET: Human CD3eg linker (human)
Sequence (chain, as listed by the source limits assumed): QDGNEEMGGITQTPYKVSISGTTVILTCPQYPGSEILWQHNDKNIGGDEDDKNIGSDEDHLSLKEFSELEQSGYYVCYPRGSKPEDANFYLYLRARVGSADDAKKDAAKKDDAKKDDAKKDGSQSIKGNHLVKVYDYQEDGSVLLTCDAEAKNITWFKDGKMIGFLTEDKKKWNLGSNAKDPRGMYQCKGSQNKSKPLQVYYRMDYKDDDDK
MEASUREMENT_NOTES: SPR; fold vs parent H183/L072
Recorded fold change of affinity for the following binders
MEASUREMENT_TYPE: fold change of affinity (fold)

binder="H183/L072 VL K50M (antibody, name in Kabat numbering, V domains shown) VH: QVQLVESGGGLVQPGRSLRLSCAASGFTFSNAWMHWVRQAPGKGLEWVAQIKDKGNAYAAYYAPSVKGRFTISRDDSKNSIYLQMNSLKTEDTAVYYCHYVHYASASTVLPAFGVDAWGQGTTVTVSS VL: DIVMTQSPLSLPVTPGEPASISCQASQELVHMNRNTYLHWYQQKPGQAPRLLIYMVSNRFPGVPDRFSGSGSGTDFTLKISRVEAEDVGVYYCAQGTSVPFTFGQGTKLEIK" assay_result=0
binder="H183/L072 VL F96V (antibody, name in Kabat numbering, V domains shown) VH: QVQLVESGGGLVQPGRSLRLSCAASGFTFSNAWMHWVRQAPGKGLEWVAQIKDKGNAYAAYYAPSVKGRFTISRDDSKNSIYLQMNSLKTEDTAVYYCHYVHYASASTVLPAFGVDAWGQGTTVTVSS VL: DIVMTQSPLSLPVTPGEPASISCQASQELVHMNRNTYLHWYQQKPGQAPRLLIYKVSNRFPGVPDRFSGSGSGTDFTLKISRVEAEDVGVYYCAQGTSVPVTFGQGTKLEIK" assay_result=0
binder="H183/L072 VL P95W (antibody, name in Kabat numbering, V domains shown) VH: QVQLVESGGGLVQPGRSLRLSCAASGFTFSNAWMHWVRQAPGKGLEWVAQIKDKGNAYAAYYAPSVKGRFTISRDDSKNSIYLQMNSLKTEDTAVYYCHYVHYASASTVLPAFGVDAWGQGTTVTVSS VL: DIVMTQSPLSLPVTPGEPASISCQASQELVHMNRNTYLHWYQQKPGQAPRLLIYKVSNRFPGVPDRFSGSGSGTDFTLKISRVEAEDVGVYYCAQGTSVWFTFGQGTKLEIK" assay_result=0
binder="H183/L072 VL K50G (antibody, name in Kabat numbering, V domains shown) VH: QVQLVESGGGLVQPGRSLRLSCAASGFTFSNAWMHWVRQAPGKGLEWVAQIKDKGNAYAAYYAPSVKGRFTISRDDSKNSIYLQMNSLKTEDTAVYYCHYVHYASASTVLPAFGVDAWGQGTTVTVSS VL: DIVMTQSPLSLPVTPGEPASISCQASQELVHMNRNTYLHWYQQKPGQAPRLLIYGVSNRFPGVPDRFSGSGSGTDFTLKISRVEAEDVGVYYCAQGTSVPFTFGQGTKLEIK" assay_result=0
binder="H183/L072 VL G91R (antibody, name in Kabat numbering, V domains shown) VH: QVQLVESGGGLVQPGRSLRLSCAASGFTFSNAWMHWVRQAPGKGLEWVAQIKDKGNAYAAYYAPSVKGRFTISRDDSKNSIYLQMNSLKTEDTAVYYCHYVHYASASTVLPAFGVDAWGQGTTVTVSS VL: DIVMTQSPLSLPVTPGEPASISCQASQELVHMNRNTYLHWYQQKPGQAPRLLIYKVSNRFPGVPDRFSGSGSGTDFTLKISRVEAEDVGVYYCAQRTSVPFTFGQGTKLEIK" assay_result=0
